- System: 317291-083-R-J1-PDC complex spheroid growth;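 further: compound exposure lasted seven days after spheroids formed for three days; 100% = DMSO vehicle control wells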
- Experimental Details: Anticancer human tumor 317291-083-R-J1-PDC patient-derived soft tissue sarcoma cell line growth inhibition [Asc]
- Condition Notes: second compound 0.316 µM; first compound 3.16 µM; stronger effect = lower value

Compound: C=C(F)C(=O)N1CCN(c2nc(OCC3CCCN3C)nc3c2CCN(c2cccc4cccc(Cl)c24)C3)CC1CC#N (stereo not drawn) + Cc1c(S(C)(=O)=O)c(-c2cc(F)cc(N3CCN(c4ccc(NS(=O)(=O)c5ccc(NC(CCN6CCC(C(=O)OCCCP(=O)(O)O)CC6)CSc6ccccc6)c(S(=O)(=O)C(F)(F)F)c5)cc4)CC3)c2)c(-c2ccc(Cl)cc2)n1C(C)C
viability, T/C [%]: 11.7
--
Compound: C=CC(=O)N1CCN(c2nc(=O)n(-c3c(C)ccnc3C(C)C)c3nc(-c4c(O)cccc4F)c(F)cc23)C(C)C1 (stereo not drawn) + CNC(C)C(=O)NC1CN(S(=O)(=O)c2cccc(S(=O)(=O)N3CCC4CCC(C(=O)NC(c5ccccc5)c5ccccc5)N4C(=O)C(NC(=O)C(C)NC)C3)c2)CCC2CCC(C(=O)NC(c3ccccc3)c3ccccc3)N2C1=O
viability, T/C [%]: 39
--
Compound: O=C(c1cc(Cc2n[nH]c(=O)c3ccccc23)ccc1F)N1CCN(C(=O)C2CC2)CC1 + Cc1c(S(C)(=O)=O)c(-c2cc(F)cc(N3CCN(c4ccc(NS(=O)(=O)c5ccc(NC(CCN6CCC(C(=O)OCCCP(=O)(O)O)CC6)CSc6ccccc6)c(S(=O)(=O)C(F)(F)F)c5)cc4)CC3)c2)c(-c2ccc(Cl)cc2)n1C(C)C
viability, T/C [%]: 61.8
--
Compound: C#Cc1c(F)ccc2cc(O)cc(-c3ncc4c(N5CC6CCC(C5)N6)nc(OCC56CCCN5CC(F)C6)nc4c3F)c12 (stereo not drawn) + CNC(C)C(=O)NC1CN(S(=O)(=O)c2cccc(S(=O)(=O)N3CCC4CCC(C(=O)NC(c5ccccc5)c5ccccc5)N4C(=O)C(NC(=O)C(C)NC)C3)c2)CCC2CCC(C(=O)NC(c3ccccc3)c3ccccc3)N2C1=O
viability, T/C [%]: 43.6
--
Compound: C=CC(=O)N1CCN(c2nc(=O)n(-c3c(C)ccnc3C(C)C)c3nc(-c4c(O)cccc4F)c(F)cc23)C(C)C1 (stereo not drawn) + Cc1c(S(C)(=O)=O)c(-c2cc(F)cc(N3CCN(c4ccc(NS(=O)(=O)c5ccc(NC(CCN6CCC(C(=O)OCCCP(=O)(O)O)CC6)CSc6ccccc6)c(S(=O)(=O)C(F)(F)F)c5)cc4)CC3)c2)c(-c2ccc(Cl)cc2)n1C(C)C
viability, T/C [%]: 83.9
--
Compound: O=C(c1cc(Cc2n[nH]c(=O)c3ccccc23)ccc1F)N1CCN(C(=O)C2CC2)CC1 + CNC(C)C(=O)NC1CN(S(=O)(=O)c2cccc(S(=O)(=O)N3CCC4CCC(C(=O)NC(c5ccccc5)c5ccccc5)N4C(=O)C(NC(=O)C(C)NC)C3)c2)CCC2CCC(C(=O)NC(c3ccccc3)c3ccccc3)N2C1=O
viability, T/C [%]: 17.4
--
Compound: C#Cc1c(F)ccc2cc(O)cc(-c3ncc4c(N5CC6CCC(C5)N6)nc(OCC56CCCN5CC(F)C6)nc4c3F)c12 (stereo not drawn) + Cc1c(S(C)(=O)=O)c(-c2cc(F)cc(N3CCN(c4ccc(NS(=O)(=O)c5ccc(NC(CCN6CCC(C(=O)OCCCP(=O)(O)O)CC6)CSc6ccccc6)c(S(=O)(=O)C(F)(F)F)c5)cc4)CC3)c2)c(-c2ccc(Cl)cc2)n1C(C)C
viability, T/C [%]: 80.3
--
Compound: C=C(F)C(=O)N1CCN(c2nc(OCC3CCCN3C)nc3c2CCN(c2cccc4cccc(Cl)c24)C3)CC1CC#N (stereo not drawn) + CNC(C)C(=O)NC1CN(S(=O)(=O)c2cccc(S(=O)(=O)N3CCC4CCC(C(=O)NC(c5ccccc5)c5ccccc5)N4C(=O)C(NC(=O)C(C)NC)C3)c2)CCC2CCC(C(=O)NC(c3ccccc3)c3ccccc3)N2C1=O
viability, T/C [%]: 13.1
